Target: human TLR7 (Homo sapiens, UniProt Q9NYK1)
Construct: host or cells: HEK-Blue cells (HEK293-derived reporter line)
Sequence (Q9NYK1 27-1049): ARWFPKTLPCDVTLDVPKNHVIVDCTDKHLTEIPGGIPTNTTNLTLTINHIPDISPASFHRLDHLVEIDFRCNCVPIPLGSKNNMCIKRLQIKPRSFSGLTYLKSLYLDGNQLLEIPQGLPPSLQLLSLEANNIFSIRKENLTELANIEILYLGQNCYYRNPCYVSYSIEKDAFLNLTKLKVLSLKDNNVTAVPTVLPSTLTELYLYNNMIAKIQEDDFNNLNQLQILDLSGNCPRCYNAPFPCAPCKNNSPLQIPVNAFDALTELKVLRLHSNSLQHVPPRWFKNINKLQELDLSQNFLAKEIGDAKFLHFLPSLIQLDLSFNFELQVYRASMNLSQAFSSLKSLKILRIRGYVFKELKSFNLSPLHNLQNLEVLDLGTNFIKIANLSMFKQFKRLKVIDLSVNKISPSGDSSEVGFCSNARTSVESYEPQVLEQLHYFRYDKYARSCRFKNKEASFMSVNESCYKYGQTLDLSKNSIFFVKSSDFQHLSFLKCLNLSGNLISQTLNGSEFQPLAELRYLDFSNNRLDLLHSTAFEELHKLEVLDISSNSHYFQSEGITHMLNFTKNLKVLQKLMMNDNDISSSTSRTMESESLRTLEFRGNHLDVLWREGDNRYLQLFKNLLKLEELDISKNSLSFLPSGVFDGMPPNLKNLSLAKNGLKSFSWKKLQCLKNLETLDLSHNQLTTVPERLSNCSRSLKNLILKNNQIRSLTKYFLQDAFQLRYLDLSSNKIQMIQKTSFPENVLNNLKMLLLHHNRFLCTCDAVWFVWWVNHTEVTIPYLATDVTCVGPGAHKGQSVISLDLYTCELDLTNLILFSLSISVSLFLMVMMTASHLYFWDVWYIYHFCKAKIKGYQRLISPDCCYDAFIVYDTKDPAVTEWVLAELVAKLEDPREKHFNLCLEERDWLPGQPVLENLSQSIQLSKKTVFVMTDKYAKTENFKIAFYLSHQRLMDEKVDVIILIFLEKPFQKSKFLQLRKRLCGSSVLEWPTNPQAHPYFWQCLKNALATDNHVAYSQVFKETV
Assay: TLR7 inhibition reporter assay (HEK-Blue cells, SEAP reporter, gardiquimod stimulation)
Format: cell-based
Conditions: HEK-Blue cells overexpressing human TLR7, SEAP reporter, gardiquimod 7.5 μM
Text: TLR7/8/9 Inhibition Reporter Assays HEK-Blue™-cells (Invivogen) overexpressing human TLR7, TLR8 or TLR9 receptors were used for screening inhibitors of these receptors using an inducible SEAP (secreted embryonic alkaline phosphatase) reporter gene under the control of the IFN-β minimal promoter fused to five NF-κB and AP-1-binding sites. […]
pIC50: −log10 of the molar value.
OBSERVATION_TYPE: pIC50

Worked examples follow.
MOL: CC(C)c1c(-c2ccnc3[nH]ncc23)[nH]c2ccc(C3CCN(Cc4ncc[nH]4)CC3)cc12
TARGET_OR_SYSTEM: human TLR7 (Homo sapiens, UniProt Q9NYK1)
pIC50: > 7.00
--
MOL: Cc1cc(-c2[nH]c3ccc(C4CCN(C(=O)CN5CC(C)(C)OC(C)(C)C5)CC4)cc3c2C(C)C)cn2nnnc12
TARGET_OR_SYSTEM: human TLR7 (Homo sapiens, UniProt Q9NYK1)
pIC50: > 7.00
--
MOL: COc1cc(-c2[nH]c3ccc(C4CCN(CC(=O)N(C)C)CC4)cc3c2C(C)C)cc2ncnn12
TARGET_OR_SYSTEM: human TLR7 (Homo sapiens, UniProt Q9NYK1)
pIC50: > 7.00

Then this compound:
Incoming: // map "Cc1nn2ccc(-c3[nH]c4ccc(C5CCNCC5)cc4c3C(C)C)nc2c1F" to recorded pIC50 (system: human TLR7 (Homo sapiens, UniProt Q9NYK1))
Outgoing: 4.30 to 6.00

* * *

Target: UniProt Q9NYK1
Sequence (Q9NYK1 27-1049): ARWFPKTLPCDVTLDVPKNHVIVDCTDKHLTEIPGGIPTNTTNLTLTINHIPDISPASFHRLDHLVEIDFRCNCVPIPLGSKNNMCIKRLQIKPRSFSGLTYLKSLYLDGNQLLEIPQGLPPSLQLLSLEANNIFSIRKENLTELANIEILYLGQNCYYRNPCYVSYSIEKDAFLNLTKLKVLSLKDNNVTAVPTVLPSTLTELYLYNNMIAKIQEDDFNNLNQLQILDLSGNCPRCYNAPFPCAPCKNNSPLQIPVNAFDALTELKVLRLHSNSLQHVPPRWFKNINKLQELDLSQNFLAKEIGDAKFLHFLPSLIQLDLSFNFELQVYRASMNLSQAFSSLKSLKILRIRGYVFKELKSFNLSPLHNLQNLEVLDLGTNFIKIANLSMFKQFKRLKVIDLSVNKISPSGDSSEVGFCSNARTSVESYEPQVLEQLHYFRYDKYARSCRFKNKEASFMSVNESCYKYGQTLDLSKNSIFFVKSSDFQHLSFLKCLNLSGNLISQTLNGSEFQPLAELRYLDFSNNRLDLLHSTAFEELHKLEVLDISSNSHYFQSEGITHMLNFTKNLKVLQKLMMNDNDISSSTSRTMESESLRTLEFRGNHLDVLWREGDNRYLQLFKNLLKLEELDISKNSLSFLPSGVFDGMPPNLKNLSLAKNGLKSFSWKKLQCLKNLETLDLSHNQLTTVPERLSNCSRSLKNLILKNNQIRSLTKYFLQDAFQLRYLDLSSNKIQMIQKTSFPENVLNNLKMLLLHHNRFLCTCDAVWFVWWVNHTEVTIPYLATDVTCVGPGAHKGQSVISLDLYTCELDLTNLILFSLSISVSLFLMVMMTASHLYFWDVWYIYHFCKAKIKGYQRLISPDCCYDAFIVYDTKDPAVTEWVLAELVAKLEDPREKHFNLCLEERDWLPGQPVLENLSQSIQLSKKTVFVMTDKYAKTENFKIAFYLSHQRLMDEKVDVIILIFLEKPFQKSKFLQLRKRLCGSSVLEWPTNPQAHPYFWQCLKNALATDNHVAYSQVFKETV
Test: TLR7 inhibition reporter assay (HEK-Blue cells, SEAP reporter, gardiquimod stimulation)
Details: HEK-Blue cells overexpressing human TLR7, SEAP reporter, gardiquimod 7.5 μM
IC50 by entry:

Worked examples follow.
COMPOUND: CCc1c(-c2ccnc3[nH]ccc23)[nH]c2ccc(C3CCN(C4CCN(CC)CC4)CC3)cc12
IC50: < 100 nM

COMPOUND: Cc1cc(-c2[nH]c3ccc(C4CCNCC4)cc3c2C(C)C)cn2ccnc12
IC50: < 100 nM

COMPOUND: Cc1cc(-c2c[nH]c3nccc(-c4[nH]c5ccc(C6CCNCC6)cc5c4C)c23)n(C)n1
IC50: 100 to 1000 nM

COMPOUND: Cc1c(-c2ccnc3[nH]cc(-c4ccccc4)c23)[nH]c2ccc(C3CCNCC3)cc12
IC50: 1000 to 50000 nM

COMPOUND: COc1cc(-c2[nH]c3ccc(C4CCN(CC(=O)N(C)C)CC4)cc3c2C(C)C)cc2nccn12
IC50: 100 to 1000 nM

COMPOUND: CC(C)c1c(-c2cccn3ncnc23)[nH]c2ccc(C3CCN(C(=O)CN(C)C)CC3)cc12
IC50: 100 to 1000 nM

COMPOUND: CCc1c(-c2ccnc3[nH]ccc23)[nH]c2ccc(C3CCN(C4CCN(C(C)C)CC4)CC3)cc12
IC50: < 100 nM

COMPOUND: CNCCN1CCC(c2ccc3[nH]c(-c4ccnc5[nH]ncc45)c(C(C)C)c3c2)C(F)C1 (stereo not shown) [Example 679]
IC50: < 100 nM

Incoming: Suppose we examine the compound "CCc1c(-c2ccc3ncc(C#N)n3n2)[nH]c2ccc(C3CCNCC3)cc12" ; what IC50 value has been reported?
Outgoing: 1000 to 50000 nM

Incoming: Suppose we examine the compound "Cc1nnn2ccc(-c3[nH]c4ccc(C5CCNCC5)cc4c3C(C)C)cc12" ; what IC50 value has been reported?
Outgoing: < 100 nM

Incoming: Suppose we examine the compound "Cc1nc2c(C)cc(-c3[nH]c4ccc(C5CCN(C(=O)CN(C)C)CC5)cc4c3C(C)C)cn2c1C" ; what IC50 value has been reported?
Outgoing: < 100 nM

Incoming: Suppose we examine the compound "Cc1cn2cc(-c3[nH]c4ccc(C5CCN(CC(=O)N(C)C)CC5)cc4c3CC(F)F)ccc2n1" ; what IC50 value has been reported?
Outgoing: < 100 nM

Incoming: Suppose we examine the compound "CCc1c(-c2cccc3c2cnn3C)[nH]c2ccc(C3CCNCC3)cc12" ; what IC50 value has been reported?
Outgoing: 1000 to 50000 nM

Incoming: Suppose we examine the compound "Cc1cc2nccn2cc1-c1[nH]c2ccc(C3CCN(CCCN(C)C)CC3)cc2c1C(C)C" ; what IC50 value has been reported?
Outgoing: < 100 nM

Incoming: Suppose we examine the compound "Cc1cc(-c2[nH]c3ccc(C4CCN(Cc5ccn(C)n5)CC4)cc3c2C(C)C)cn2nncc12" ; what IC50 value has been reported?
Outgoing: 1000 to 50000 nM

Incoming: Suppose we examine the compound "CC(C)c1c(-c2cn(C)c3ncccc23)[nH]c2ccc(C3CCN(Cc4cnn[nH]4)CC3)cc12" ; what IC50 value has been reported?
Outgoing: < 100 nM

Incoming: Suppose we examine the compound "CC(C)c1c(-c2cc(C(F)(F)F)c3nccn3c2)[nH]c2ccc(C3CCN(C(C)C)CC3)cc12" ; what IC50 value has been reported?
Outgoing: < 100 nM

Incoming: Suppose we examine the compound "CC(C)c1c(-c2cnc3ncnn3c2)[nH]c2ccc(C3CCN(C4CCS(=O)(=O)CC4)CC3)cc12" ; what IC50 value has been reported?
Outgoing: < 100 nM

Incoming: Suppose we examine the compound "CCc1c(-c2ccnc3[nH]cc(Cl)c23)[nH]c2ccc(C3CCN(C4CCN(C(C)C)CC4)CC3)cc12" ; what IC50 value has been reported?
Outgoing: 100 to 1000 nM

Incoming: Suppose we examine the compound "Cc1cc(-c2[nH]c3ccc(C4CCN(C(=O)CCN5CCC(F)CC5)CC4)cc3c2C(C)C)cn2nnnc12" ; what IC50 value has been reported?
Outgoing: < 100 nM

Incoming: Suppose we examine the compound "COc1cc(-c2[nH]c3ccc(C4CCN(CCNS(C)(=O)=O)CC4)cc3c2C(C)C)nn2ncnc12" ; what IC50 value has been reported?
Outgoing: < 100 nM
